test: PAX8 transcriptional activity inhibition in RMG-I – RMG-I cells, luciferase, single concentration, primary screen (AID 652154); details: RMG-I TPO-luciferase reporter, SteadyGlo, 24 h; at 12.6 µM; hits give high values;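 also: luciferase light reporting Pax8 driven TPO promoter activity; plate controls were median of neutral control wells for no effect and mitoxantrone controls for full effect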
Among all 360,000 compounds or so, about 4,200 (1.2%) were called active. Many of the other results were omitted from the sample, so actives are more common in it than they were.
For each of the molecules below, state its inhibition.
Numbers only, in %.

Reference set (6 entries):
cpd_smiles: C[C@H](CO)N1C[C@H](C)[C@H](CN(C)S(=O)(=O)c2ccc(F)cc2)OCCCC[C@H](C)Oc2ccc(NS(=O)(=O)c3ccc(Cl)cc3)cc2C1=O
inhibition, %: 87.4

cpd_smiles: CC(C)C#Cc1ccc([C@H]2[C@@H](CO)N3CCCCN(C(=O)Nc4ccccc4)C[C@H]23)cc1
inhibition, %: 7.15

cpd_smiles: COc1ccc(C#Cc2ccc([C@H]3[C@@H](CO)N4CCCCN(C(=O)Nc5ccccc5)C[C@H]34)cc2)cc1
inhibition, %: 85.6

cpd_smiles: C[C@H](CO)N1C[C@H](C)[C@@H](CN(C)S(=O)(=O)c2ccc(F)cc2)Oc2ccc(NC(=O)CCCCCC(=O)Nc3ccccc3N)cc2CC1=O
inhibition, %: 26.9

cpd_smiles: COc1ccccc1NC(=O)N1CCCCN2[C@H](C1)[C@H](c1ccc(-c3ccccc3)cc1)[C@@H]2CO
inhibition, %: -14.1

cpd_smiles: O=C(CC1CC1)N1CC(=O)N2[C@H](CO)[C@H](c3ccc(C#Cc4ccc(F)cc4)cc3)[C@@H]2C1
inhibition, %: 2.13

Lab note: measured inhibition of C[C@@H]1CCCCO[C@H](CN(C)S(=O)(=O)c2ccc(F)cc2)[C@H](C)CN([C@@H](C)CO)C(=O)c2cc(NS(=O)(=O)c3ccccc3)ccc2O1 was 3.05
